Test system: MDA-MB-231 human breast cancer cells
Assay: Cell proliferation assay (CellTiter-Glo, 72 hours treatment)
Type: cell-based
Conditions: Homo sapiens; MDA-MB-231 cells, 72 hours at 37° C., CellTiter-Glo; read-out: MDA-MB-231 cell proliferation assay (IC50)
Protocol: Human tumor cell lines were cultured in the appropriate media (DMEM and RPMI) supplemented with penicillin G (100 U/ml), streptomycin (100 μg/ml), 10% FBS in a humidified atmosphere of 5% CO2 maintained at 37° C. Exponentially growing cells were seeded at 2,500 cells/well in 96 well plates prior to drug treatment. […] Following compound treatment, cell proliferation was assessed by CellTiter-Glo assay (Promega, Madison Wis.) according to the manufacturer's protocol. […]
pIC50: −log10 of the molar value.
OUTCOME MEASURE: pIC50

COMPOUND	pIC50
COc1cncc2c1[C@]1(O)[C@H](O)[C@H](CN3CC4CC(C3)O4)[C@@H](c3ccccc3)[C@]1(c1ccc(C#N)cc1)O2 (single isomer, unassigned) [274F]	6.00 to 7.00

Input: Looking for the measured pIC50 of COc1cncc2c1[C@]1(O)[C@H](O)[C@H](C(=O)N(C)C)[C@@H](c3ccccc3)[C@]1(c1ccc(C)cc1)O2 (racemic) [255F] , can you help?
Output: 6.00 to 7.00

Input: Looking for the measured pIC50 of CN(C)C(=O)[C@H]1[C@@H](O)[C@@]2(O)c3ncc(Cl)cc3O[C@@]2(c2ccc(Cl)cc2)[C@@H]1c1ccccc1 (single isomer, unassigned) [11F] , can you help?
Output: 6.00 to 7.00

Input: Looking for the measured pIC50 of COc1nc(C#N)cc2c1[C@]1(O)[C@H](O)[C@H](CN3CCC(F)(F)CC3)[C@@H](c3ccccc3)[C@]1(c1ccc(Br)cc1)O2 (racemic) [157Fa] , can you help?
Output: 6.00 to 7.00

Input: Looking for the measured pIC50 of COc1nc(Cl)cc2c1[C@]1(O)[C@H](O)[C@H](CN3CCC34CC4(F)F)[C@@H](c3ccccc3)[C@]1(c1ccc(Br)cc1)O2 (mixture of isomers) [220F] , can you help?
Output: > 7.00

Input: Looking for the measured pIC50 of COc1cncc2c1[C@]1(O)[C@H](O)[C@H](CNCCF)[C@@H](c3ccccc3)[C@]1(c1ccc(C#N)cc1)O2 (racemic) [259F] , can you help?
Output: 6.00 to 7.00

Input: Looking for the measured pIC50 of COc1nc(C#N)cc2c1[C@]1(O)[C@H](O)[C@H](CNC(C)(C)C)[C@@H](c3ccccc3)[C@]1(c1ccc(C#N)cc1)O2 (racemic) [155F] , can you help?
Output: 6.00 to 7.00

Input: Looking for the measured pIC50 of COc1cncc2c1[C@]1(O)[C@H](O)[C@H](CN3[C@@H]4COC[C@H]3C4)[C@@H](c3ccccc3)[C@]1(c1ccc(C#N)cc1)O2 (racemic) [267F] , can you help?
Output: 6.00 to 7.00

Input: Looking for the measured pIC50 of COc1cncc2c1[C@]1(O)[C@H](O)[C@H](C(=O)N3CCOCC3)[C@@H](c3ccccc3)[C@]1(c1ccc(Br)cc1)O2 (racemic) [87F] , can you help?
Output: > 7.00

Input: Looking for the measured pIC50 of COc1cncc2c1[C@]1(O)[C@@H](CO)C[C@@H](c3ccccc3)[C@]1(c1ccc(C#N)cc1)O2 (single isomer, unassigned) [120F] , can you help?
Output: > 7.00

Input: Looking for the measured pIC50 of COc1ccc([C@@]23Oc4cc(OC)ccc4[C@]2(N)[C@H](O)[C@H](C(=O)N(C)C)[C@H]3c2ccccc2)cc1 (racemic) [44F] , can you help?
Output: < 6.00

Input: Looking for the measured pIC50 of COc1nc(Cl)cc2c1[C@]1(O)[C@@H](CN(C)C)[C@H](CO)[C@@H](c3ccccc3)[C@]1(c1ccc(Br)cc1)O2 (racemic) [209F] , can you help?
Output: > 7.00
